assayed_target: human PAD4 (hPAD4) (Homo sapiens (Human))
Sequence (Q9UM07 whole entry): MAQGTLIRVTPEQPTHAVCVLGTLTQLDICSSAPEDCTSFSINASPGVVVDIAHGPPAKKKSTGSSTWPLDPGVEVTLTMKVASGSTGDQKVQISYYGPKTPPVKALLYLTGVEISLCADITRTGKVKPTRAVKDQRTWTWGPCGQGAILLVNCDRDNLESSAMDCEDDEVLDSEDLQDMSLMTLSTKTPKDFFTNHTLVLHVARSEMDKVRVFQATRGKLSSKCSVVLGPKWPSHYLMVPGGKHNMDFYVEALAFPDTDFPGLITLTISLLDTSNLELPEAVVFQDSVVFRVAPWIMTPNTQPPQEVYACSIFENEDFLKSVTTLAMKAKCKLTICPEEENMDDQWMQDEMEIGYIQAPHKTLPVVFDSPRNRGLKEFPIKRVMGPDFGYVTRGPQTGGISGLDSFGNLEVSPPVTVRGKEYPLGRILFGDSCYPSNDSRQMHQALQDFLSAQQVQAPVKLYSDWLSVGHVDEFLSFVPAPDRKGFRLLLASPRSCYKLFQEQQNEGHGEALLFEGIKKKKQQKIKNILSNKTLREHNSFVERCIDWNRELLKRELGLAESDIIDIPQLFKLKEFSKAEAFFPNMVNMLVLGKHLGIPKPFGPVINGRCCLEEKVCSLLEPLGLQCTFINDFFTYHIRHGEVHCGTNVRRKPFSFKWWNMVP
procedure_text: RFMS Human PAD4 Functional Assay
protocol_conditions: rapid-fire mass spectrum (RFMS) assay; 5 nM hPAD4 enzyme, 250 μM BAEE, 30 min preincubation at 37° C.
endpoint: log10 of IC50 (log10 of the value in nM)

{"columns": ["molecule", "observed_measurement"],
 "data": [
  ["COc1cc(C(=O)N2C[C@H]3CC[C@@H]2[C@@H]3N)cc2nc3n(c12)CCC(=O)Nc1ccccc1OCCCn1c-3cc2cccnc21", 1.48],
  ["COc1cc(C(=O)N2CC3CCC2[C@@H]3N)cc2nc3n(c12)Cc1cnn(c1)CCCCCn1c-3cc2ccccc21 (stereo partly shown)", 2.41],
  ["COc1cc(C(=O)N2C[C@H]3CC[C@@H]2[C@@H]3N)cc2nc3n(c12)Cc1cccc(c1)[C@H](O)[C@H](O)CCCCn1c-3cc2cccnc21 (single isomer, unassigned) [Example 46]", 1.65],
  ["COc1cc(C(=O)N2C[C@H]3CC[C@@H]2[C@@H]3N)cc2nc3n(c12)Cc1cccc(c1)[C@H](O)[C@H](O)CCCCn1c-3cc2cccnc21 (relative stereo) [Example 48]", 1.96],
  ["COc1cc(C(=O)N2CC3CCC2[C@@H]3N)cc2nc3n(c12)Cc1cccc(c1)-c1ccccc1OCCCn1c-3cc2cccnc21 (stereo partly shown)", 1.48],
  ["COc1cc(C(=O)N2C[C@H](N)C[C@@H](F)C2)cc2nc3n(c12)Cc1cncc(c1)-c1ccccc1CCCCn1c-3cc2cccnc21", 0.60],
  ["COc1cc(C(=O)N2CC3CCC2[C@@H]3N)cc2nc3n(c12)Cc1cccc(c1)-c1ccccc1CCCCn1c-3cc2ccccc21 (stereo partly shown)", 1.72],
  ["COc1cc(C(=O)N2CCC[C@@H](N)C2)cc2nc3n(c12)Cc1cnn(c1)CCCCCCn1c-3cc2cccnc21", 4.27],
  ["COc1cc(C(=O)N2C[C@H](N)C[C@@H](F)C2)cc2nc3n(c12)Cc1cncc(c1)-c1ccccc1CCCCn1c-3cc2ccc(C(C)(C)O)nc21", 0.90],
  ["COc1cc(C(=O)N2CC3CCC2[C@@H]3N)cc2nc3n(c12)Cc1ccn(n1)-c1ccccc1OCCCn1c-3cc2ccccc21 (stereo partly shown)", 0.70]
]}
